Tested on: RARa:RXR (NR concentration 270 nM, RXRa partner concentration 90 nM)
Method notes: PBM binding z-score (relative to random genomic background probes); higher = stronger binding; sequences stand for … in GC…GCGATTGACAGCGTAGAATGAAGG
Property: PBM binding z-score
The reply should be a number, written without any unit.

Summary: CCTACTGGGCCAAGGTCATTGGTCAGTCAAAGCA , RARa:RXR (NR concentration 270 nM, RXRa partner concentration 90 nM), PBM binding z-score = 3.85

Summary: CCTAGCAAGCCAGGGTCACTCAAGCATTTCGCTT , RARa:RXR (NR concentration 270 nM, RXRa partner concentration 90 nM), PBM binding z-score = 3.42

Summary: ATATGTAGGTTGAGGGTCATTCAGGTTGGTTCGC , RARa:RXR (NR concentration 270 nM, RXRa partner concentration 90 nM), PBM binding z-score = 3.89

Summary: CCGACTGGGGCAAAGGTTATCATACTCAGTACGA , RARa:RXR (NR concentration 270 nM, RXRa partner concentration 90 nM), PBM binding z-score = 3.14

Summary: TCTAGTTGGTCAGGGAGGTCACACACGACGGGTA , RARa:RXR (NR concentration 270 nM, RXRa partner concentration 90 nM), PBM binding z-score = 4.2

Further cases:
Summary: TCTTGTAGATCAGGCAGGTTAAGAAAGCCTGAGT , RARa:RXR (NR concentration 270 nM, RXRa partner concentration 90 nM), PBM binding z-score = 0.0754

Summary: AGTCAAAGTTCTGGACGAGGTAACGTAAAGCACG , RARa:RXR (NR concentration 270 nM, RXRa partner concentration 90 nM), PBM binding z-score = 0.0945

---

Test system: RARa:RXR (NR concentration 270 nM, RXRa partner concentration 90 nM)
Method notes: PBM binding z-score (relative to random genomic background probes); higher = stronger binding; sequences stand for … in GC…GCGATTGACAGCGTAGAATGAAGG
Rule: yes for PBM binding z-score not less than 3, no for anything less.

Solved cases (5 shown):
Task: Threshold query (PBM binding z-score >= 3) on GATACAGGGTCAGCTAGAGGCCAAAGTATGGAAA
Result: yes

Task: Threshold query (PBM binding z-score >= 3) on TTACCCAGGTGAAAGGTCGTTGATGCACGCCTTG
Result: yes

Task: Threshold query (PBM binding z-score >= 3) on ATATGTAGGCTACATCCGGGTCATTCAGGCTATG
Result: no

Task: Threshold query (PBM binding z-score >= 3) on TCTGCTAGGTCCACGATGGTCAGCTAATCTGCTA
Result: no

Task: Threshold query (PBM binding z-score >= 3) on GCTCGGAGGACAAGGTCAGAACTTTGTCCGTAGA
Result: no

Further cases:
Task: Threshold query (PBM binding z-score >= 3) on ACTAGCAGGCCAAGTTTGCGTCACTCAAACAAAG
Result: no

Task: Threshold query (PBM binding z-score >= 3) on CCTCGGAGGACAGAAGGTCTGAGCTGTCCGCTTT
Result: no

Task: Threshold query (PBM binding z-score >= 3) on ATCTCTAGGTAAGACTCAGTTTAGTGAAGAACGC
Result: no

Task: Threshold query (PBM binding z-score >= 3) on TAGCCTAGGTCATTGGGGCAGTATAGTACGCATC
Result: no

Task: Threshold query (PBM binding z-score >= 3) on CATACAGGGTCAGCTAGGCCAGGGTAGGGACGGC
Result: yes

Task: Threshold query (PBM binding z-score >= 3) on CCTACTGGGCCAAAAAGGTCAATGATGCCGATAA
Result: yes
